Assay: Cmax in Sprague-Dawley rat at 8 mg/kg, iv by LC-MS analysis
Format: ADME, organism-based
Parameters: dose 8 mg/kg, route iv
Settings: in vivo
metric: Cmax
Report field: quantity (unit follows the number).

Entry CCCCCC[n+]1ccn(-c2ccc(C#Cc3ccc(-n4cc[n+](CCCCCC)c4)cc3)cc2)c1.[Br-].[Br-] has what Cmax?
12 µg/mL

---

Assay: Selectivity ratio of HC5 for hemolytic activity in rabbit erythrocytes to MIC for antibacterial activity against methicillin-resistant Staphylococcus aureus ATCC 43300
Type: toxicity, cell-based
The entries below are paired with their reported selectivity ratio.
Quick one: just the number, no unit, thanks!

Below are worked cases with known answers.
INSERT INTO measurements (molecule_smiles, value_observed) VALUES
  ('CCCCCC[n+]1ccn(-c2ccc(/C=C/c3ccc(-n4cc[n+](CCCCCC)c4)cc3)cc2)c1.[Br-].[Br-]', 600),
  ('CCCCCC[n+]1ccn(-c2ccc(CCc3ccc(-n4cc[n+](CCCCCC)c4)cc3)cc2)c1.[Br-].[Br-]', 1000),
  ('CCCCCCCC[n+]1ccn(CCCCn2cc[n+](CCCCCCCC)c2)c1.[Br-].[Br-]', 50);

Could you share which selectivity ratio value was measured for CCCCCCCC[n+]1ccn(-c2ccc(C#Cc3ccc(-n4cc[n+](CCCCCCCC)c4)cc3)cc2)c1.[Br-].[Br-] ?
200

Same thing, different compound: C(#Cc1ccc(-n2cc[n+](Cc3ccccc3)c2)cc1)c1ccc(-n2cc[n+](Cc3ccccc3)c2)cc1.[Br-].[Br-]
200

Cool, now CC[n+]1ccn(-c2ccc(C#Cc3ccc(-n4cc[n+](CC)c4)cc3)cc2)c1.[Br-].[Br-]
125

Record: CCCCCC[n+]1ccn(-c2ccc(C#Cc3ccc(-n4cc[n+](CCCCCC)c4)cc3)cc2)c1.[Br-].[Br-]
1600

Next entry: CCCC[n+]1ccn(-c2ccc(C#Cc3ccc(-n4cc[n+](CCCC)c4)cc3)cc2)c1.[Br-].[Br-]
500

# iterate: CCCCCC[n+]1ccn(CCCCn2cc[n+](CCCCCC)c2)c1.[Br-].[Br-]
16

---

Assay: MRT (0 to infinity) in Sprague-Dawley rat at 8 mg/kg, iv by LC-MS analysis
Format: ADME, organism-based
Settings: in vivo
metric: MRT inf (min)
API: value field is a number in min; no unit string.

# input molecule: CCCCCC[n+]1ccn(-c2ccc(C#Cc3ccc(-n4cc[n+](CCCCCC)c4)cc3)cc2)c1.[Br-].[Br-] ; wanted: its MRT inf
32.5

---

Experiment: Half-life in Sprague-Dawley rat at 8 mg/kg, iv by LC-MS analysis
Assay type: ADME, organism-based
Conditions: in vivo
metric: half-life
Could you kindly put the unit after your number?

What does the record list as half-life for CCCCCC[n+]1ccn(-c2ccc(C#Cc3ccc(-n4cc[n+](CCCCCC)c4)cc3)cc2)c1.[Br-].[Br-] ?
51.4 min

---

# HC5 per entry
System: Erythrocyte
Assay: Hemolytic activity in rabbit erythrocytes incubated for 1 hr
Type: toxicity, cell-based, Oryctolagus cuniculus

Look up HC5 for this compound: CCCCCC[n+]1ccn(CCCCn2cc[n+](CCCCCC)c2)c1.[Br-].[Br-]
8000 µg/mL

---

Assay: Mean clearance rate, Clz in Sprague-Dawley rat at 8 mg/kg, iv by LC-MS analysis
Format: ADME, organism-based
Details: in vivo
metric: clearance (mL/min/kg)
The figure you give is taken to be in mL/min/kg; do not add the unit.

Which measured clearance value corresponds to CCCCCC[n+]1ccn(-c2ccc(C#Cc3ccc(-n4cc[n+](CCCCCC)c4)cc3)cc2)c1.[Br-].[Br-] ?
27.2
